biological target: FGF14:Nav1.6 C-tail complex (Homo sapiens, UniProt Q92915+Q9UQD0); construct: polymerase chain reaction (PCR) amplification of the FGF14 open reading frame (nt 1–855); C-terminal fragment of Nav1.6 (amino acids 1763–1976) fused with CD4ΔC-tail (amino acids 1–395); expressed in transfected cells; assay: Split-luciferase complementation assay (LCA) in Clone V double stable HEK293 cells; assay type: cell-based; settings: CC_NCI screening, biological replicate Set 2; normalized to on-plate 0.3% DMSO controls (n=16 per plate)
Sequence (Q92915 1-252 isoform Q92915-2): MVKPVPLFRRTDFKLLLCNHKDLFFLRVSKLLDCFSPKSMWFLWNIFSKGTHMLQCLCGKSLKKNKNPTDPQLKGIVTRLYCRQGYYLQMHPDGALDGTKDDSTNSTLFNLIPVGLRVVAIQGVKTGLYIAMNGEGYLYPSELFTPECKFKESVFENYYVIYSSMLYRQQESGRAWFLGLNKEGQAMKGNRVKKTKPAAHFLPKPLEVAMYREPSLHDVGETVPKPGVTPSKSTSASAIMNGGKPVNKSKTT
Sequence (Q9UQD0 1763-1976 limits assumed): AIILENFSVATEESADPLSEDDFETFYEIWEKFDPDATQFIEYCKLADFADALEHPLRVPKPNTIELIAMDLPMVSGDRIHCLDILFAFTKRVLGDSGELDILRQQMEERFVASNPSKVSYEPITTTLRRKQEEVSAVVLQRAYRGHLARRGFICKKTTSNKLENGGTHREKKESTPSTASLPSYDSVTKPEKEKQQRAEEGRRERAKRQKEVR
Where a name gives a salt, the structure may show the parent alone.
The label depends only on Split Luciferase Assay %Lum Set 2: 1 if it is at least 90%, 0 if it is smaller.

| compound | discrete_label |
| --- | --- |
| NCC(=O)CCC(=O)O [Aminolevulinic acid hydrochloride] | 1 |
| COc1cc2c(Nc3ccc(NC(=O)c4ccccc4)cc3)ncnc2cc1OCCCN1CCOCC1 | 0 |
| Fc1ccc(Cl)cc1-c1nc(Nc2ccncc2)c2nccnc2n1 | 0 |
| NC(=O)c1ccc(N(C(N)=O)c2c(F)cccc2F)nc1-c1ccc(F)cc1F | 0 |
| COc1ccc2c(c1OC)N=C(NC(=O)c1cccnc1)N1CCN=C21 | 0 |
| C[C@@H](CN1CC(=O)NC(=O)C1)N1CC(=O)NC(=O)C1 | 1 |
| CS(=O)(=O)OCCCCOS(C)(=O)=O | 1 |
| O=C1NC(=O)/C(=C/c2ccc(-c3ccc(F)cc3O)o2)S1 | 0 |
| O=C1NC(=O)c2c1c1c3ccccc3n3c1c1c2c2ccccc2n1C1CCC3O1 | 0 |

---

molecular target: FGF14:Nav1.6 C-tail complex (Homo sapiens, UniProt Q92915+Q9UQD0); construct: polymerase chain reaction (PCR) amplification of the FGF14 open reading frame (nt 1–855); C-terminal fragment of Nav1.6 (amino acids 1763–1976) fused with CD4ΔC-tail (amino acids 1–395); expressed in transfected cells; test: Split-luciferase complementation assay (LCA) in Clone V double stable HEK293 cells; format: cell-based; conditions: CC_NCI screening; LCA, biological replicate Set 2; normalized to on-plate 0.3% DMSO controls
Structures can show the parent of a compound that is named as a salt.
measure_name: Split Luciferase Assay Z-score Set 2

| compound | study_target | measure_name | measured_value |
| --- | --- | --- | --- |
| O=C(NOCC1CC1)c1ccc(F)c(F)c1Nc1ccc(I)cc1Cl [CI 1040, reference compound] | FGF14:Nav1.6 C-tail complex (Homo sapiens, UniProt Q92915+Q9UQD0) | Split Luciferase Assay Z-score Set 2 | -4.67 |
| Cc1[nH]c(/C=C2\C(=O)Nc3ccc(S(=O)(=O)N(C)c4cccc(Cl)c4)cc32)c(C)c1C(=O)N1CCN(C)CC1 | FGF14:Nav1.6 C-tail complex (Homo sapiens, UniProt Q92915+Q9UQD0) | Split Luciferase Assay Z-score Set 2 | -1.53 |
| CNC(=O)c1ccc(N2C(=S)N(c3ccc(C#N)c(C(F)(F)F)c3)C(=O)C2(C)C)cc1F [Enzalutamide] | FGF14:Nav1.6 C-tail complex (Homo sapiens, UniProt Q92915+Q9UQD0) | Split Luciferase Assay Z-score Set 2 | -0.10 |
| Cc1cccc(Nc2nc(-c3ccncc3)cs2)c1 | FGF14:Nav1.6 C-tail complex (Homo sapiens, UniProt Q92915+Q9UQD0) | Split Luciferase Assay Z-score Set 2 | -5.43 |
| COc1cc([C@@H]2c3cc4c(cc3[C@@H](O[C@@H]3O[C@@H]5CO[C@@H](C)O[C@H]5[C@H](O)[C@H]3O)[C@H]3COC(=O)[C@H]23)OCO4)cc(OC)c1O [Etoposide] | FGF14:Nav1.6 C-tail complex (Homo sapiens, UniProt Q92915+Q9UQD0) | Split Luciferase Assay Z-score Set 2 | -2.21 |
| Nc1nc(F)nc2c1ncn2[C@@H]1O[C@H](COP(=O)(O)O)[C@@H](O)[C@@H]1O [Fludarabine phosphate] | FGF14:Nav1.6 C-tail complex (Homo sapiens, UniProt Q92915+Q9UQD0) | Split Luciferase Assay Z-score Set 2 | 1.60 |
| Cc1nc(Nc2ncc(C(=O)Nc3c(C)cccc3Cl)s2)cc(N2CCN(CCO)CC2)n1 [DASATINIB] | FGF14:Nav1.6 C-tail complex (Homo sapiens, UniProt Q92915+Q9UQD0) | Split Luciferase Assay Z-score Set 2 | -2.80 |
| CS(=O)(=O)c1ccc(C(=O)Nc2ccc(Cl)c(-c3ccccn3)c2)c(Cl)c1 [Vismodegib, reference compound] | FGF14:Nav1.6 C-tail complex (Homo sapiens, UniProt Q92915+Q9UQD0) | Split Luciferase Assay Z-score Set 2 | 3.88 |
| O=C(O)C(=O)O.[NH-][C@@H]1CCCC[C@H]1[NH-].[Pt+2] | FGF14:Nav1.6 C-tail complex (Homo sapiens, UniProt Q92915+Q9UQD0) | Split Luciferase Assay Z-score Set 2 | 1.60 |
| COc1cccc2c1C(=O)c1c(O)c3c(c(O)c1C2=O)C[C@@](O)(C(=O)CO)C[C@@H]3O[C@H]1C[C@H](N)[C@H](O)[C@H](C)O1 [Doxorubicin hydrochloride] | FGF14:Nav1.6 C-tail complex (Homo sapiens, UniProt Q92915+Q9UQD0) | Split Luciferase Assay Z-score Set 2 | -3.40 |
| Cn1cc(C2=C(c3ccc(Cl)cc3Cl)C(=O)NC2=O)c2ccccc21 | FGF14:Nav1.6 C-tail complex (Homo sapiens, UniProt Q92915+Q9UQD0) | Split Luciferase Assay Z-score Set 2 | 0.50 |
| COc1ccc(Cl)cc1[C@]1(F)C(=O)Nc2cc(C(F)(F)F)ccc21 | FGF14:Nav1.6 C-tail complex (Homo sapiens, UniProt Q92915+Q9UQD0) | Split Luciferase Assay Z-score Set 2 | -6.70 |
| O=c1[nH]c(=O)n([C@H]2C[C@H](O)[C@@H](CO)O2)cc1F [Floxuridine, reference compound] | FGF14:Nav1.6 C-tail complex (Homo sapiens, UniProt Q92915+Q9UQD0) | Split Luciferase Assay Z-score Set 2 | 3.04 |
| CN(C)C/C=C/C(=O)Nc1cc2c(Nc3ccc(F)c(Cl)c3)ncnc2cc1O[C@H]1CCOC1 [BIBW2992] | FGF14:Nav1.6 C-tail complex (Homo sapiens, UniProt Q92915+Q9UQD0) | Split Luciferase Assay Z-score Set 2 | -0.43 |
| C#Cc1cccc(Nc2ncnc3cc(OCCOC)c(OCCOC)cc23)c1 [Erlotinib hydrochloride] | FGF14:Nav1.6 C-tail complex (Homo sapiens, UniProt Q92915+Q9UQD0) | Split Luciferase Assay Z-score Set 2 | -2.13 |
